Test system: Diplococcus pneumoniac type 1
assay procedure: MIC, tube dilution method
Type: cell-based, Diplococcus pneumoniae
condition details: BHI broth containing 10% horse blood
Starred links: 1 amine or outer side, 2 acyl side, 3 side chain; linkers in the order of their positions; H or OH if unused. Positions of bridges follow the written chain, without caps; N, C: chain ends. Non-standard residues stand in square brackets, D forms with d. Residues, ends and D or L forms follow the SMILES beside them. ξ: configuration not given here. *: point of attachment. X2 = CC(C)[C@H](C)[C@@H](C(=O)[*:2])N(C)[*:1]; NMeLeu(3ξ-Me) = CN[C@H](C(=O)O)C(C)C(C)C; d(cisHyp) = O=C(O)[C@H]1C[C@@H](O)CN1; X1 = CC(C)C(C)C(C(=O)[*:2])N(C)[*:1]; Picolinoyl(3-OH) = O=C(c1ncccc1O)*; NMePhg = CN[CH](C(=O)O)c1ccccc1; Thr(3ξ) = CC(O)[C@H](N)C(=O)O; Hyp = O=C(O)[CH]1C[CH](O)CN1; Abu = CC[CH](N)C(=O)O; Sar = CNCC(=O)O
property: MIC (µg/mL)

INSERT INTO assay_data (compound, system, measurement) VALUES
  ('CCC1NC(=O)C(C(C)C(C)C)N(C)C(=O)CN(C)C(=O)C2CC(O)CN2C(=O)C(CC(C)C)NC(=O)C(NC(=O)c2ncccc2O)C(C)OC(=O)C(c2ccccc2)N(C)C1=O (stereo not shown) [NV III, neoviridogrisein III] ({Picolinoyl(3-OH)}-TL[Hyp][Sar][X1][Abu][NMePhg]; ester 1-C; configuration not given here)', 'Diplococcus pneumoniac type 1', 0.2),
  ('CC(C)C[C@H]1NC(=O)[C@@H](NC(=O)c2ncccc2O)[C@@H](C)OC(=O)[C@H](c2ccccc2)N(C)C(=O)[C@H](C)NC(=O)[C@H]([C@@H](C)C(C)C)N(C)C(=O)CN(C)C(=O)[C@H]2C[C@@H](O)CN2C1=O [VG, viridogrisein] ({Picolinoyl(3-OH)}-T[dL][d(cisHyp)][Sar][X2]A[NMePhg]; ester 1-C)', 'Diplococcus pneumoniac type 1', 0.4),
  ('CC[C@@H]1NC(=O)[C@H](C(C)C(C)C)N(C)C(=O)CN(C)C(=O)[C@H]2CCCN2C(=O)[C@@H](CC(C)C)NC(=O)[C@@H](NC(=O)c2ncccc2O)C(C)OC(=O)[C@H](c2ccccc2)N(C)C1=O (stereo partly drawn) [NV I, neoviridogrisein I] ({Picolinoyl(3-OH)}-[Thr(3ξ)][dL][dP][Sar][NMeLeu(3ξ-Me)][Abu][NMePhg]; ester 1-C)', 'Diplococcus pneumoniac type 1', 0.2),
  ('CC(C)CC1NC(=O)C(NC(=O)c2ncccc2O)C(C)OC(=O)C(c2ccccc2)N(C)C(=O)C(C)NC(=O)C(C(C)C(C)C)N(C)C(=O)CN(C)C(=O)C2CCCN2C1=O (stereo not shown) [NV II, neoviridogrisein II] ({Picolinoyl(3-OH)}-TLP[Sar][X1]A[NMePhg]; ester 1-C; configuration not given here)', 'Diplococcus pneumoniac type 1', 0.4);
